Read-out: Matrix Metallopeptidase 9 (MMP9), MMP9 (gene 4318)
Method description: BSK_KF3CT_MMP9: BioMAP Diversity Plus: KF3CT Assay for Matrix Metallopeptidase 9 (MMP9) Biomarker Activity (AID 2283074)
Measurement parameters: primary human keratinocytes with fibroblasts; actives raise or lower the signal
Calls of active or inactive are those of the source. How the source made its calls: active means hit-call score of the fitted dose curve at least 0.9, where 1 is the maximum; inactive means score below 0.9.
Hi! Could you answer with just one of these? 1.0 for active, 0.0 for inactive

{"columns": ["Molecule", "Category label"],
 "data": [
  ["O=C(O)c1cccnc1", 0.0],
  ["Cn1cnc2c1c(=O)[nH]c(=O)n2C", 0.0],
  ["S=c1[nH]c2ccccc2s1", 0.0],
  ["O=[Si]=O", 0.0],
  ["CCCCC(CC)COP(=O)(OCC(CC)CCCC)OCC(CC)CCCC (centres undefined)", 0.0]
]}

Now, please, on to the next molecule.
### Prompt Per the assay record, what outcome was assigned to `CCCCCCCCCCCCCCOS(=O)(=O)O` ?
### Response 1.0

* * *

Read-out: Alkaline Phosphatase, Placental (ALPP) gene, ALPP (gene 250)
Method description: LTEA_HepaRG_ALPP: Life Technologies and Expression Analysis (LTEA) Assay for Alkaline Phosphatase, Placental (ALPP) gene using HepaRG (AID 2283468)
Measurement parameters: mRNA level, 48 h; actives raise or lower the signal
The source made the active and inactive calls. How the source made its calls: active means hit-call score of the fitted dose curve at least 0.9, where 1 is the maximum; inactive means score below 0.9.
Hi! Could you answer with just one of these? active, inactive

Here's what some known entries look like.
{"columns": ["Molecule", "Category label"],
 "data": [
  ["OCC(O)CO", "inactive"],
  ["CCCC[C@H]1CN(CC2CCOCC2)C(=O)OC12CCN(C1(C)CCN(C(=O)c3c(C)ncnc3C)CC1)CC2", "inactive"],
  ["Cc1cn([C@H]2C=C[C@@H](CO)O2)c(=O)[nH]c1=O", "inactive"],
  ["CC(COCC(C)OC(=O)c1ccccc1)OC(=O)c1ccccc1 (stereo unspecified)", "inactive"],
  ["CCCCc1nc2cccnc2n1Cc1ccc(-c2ccccc2-c2nnn[nH]2)cc1", "active"],
  ["CCN(CC)CCOc1ccc(C(=C(Cl)c2ccccc2)c2ccccc2)cc1", "active"],
  ["COC(=O)[C@H]1[C@H]2C[C@@H]3c4[nH]c5cc(OC)ccc5c4CCN3C[C@H]2C[C@@H](OC(=O)c2cc(OC)c(OC)c(OC)c2)[C@@H]1OC", "active"],
  ["CN(C)C(=O)NC1(c2ccccc2)CCN(CC[C@@]2(c3ccc(F)c(F)c3)CN(C(=O)c3ccccc3)CCO2)CC1", "inactive"],
  ["CS(=O)(=O)c1ccc([C@@H](C[C@H]2CCC(=O)C2)C(=O)Nc2cnccn2)cc1Cl", "active"],
  ["Cc1ccc(C(C)(C)C)c(O)c1", "inactive"]
]}

### Prompt Per the assay record, what outcome was assigned to `C/C=C/c1ccc(OC)cc1` ?
### Response inactive

### Prompt What do you get for `Cc1cc(Cc2ccc(N)c(C)c2)ccc1N` ?
### Response inactive

* * *

Method description: APR_HepG2_MitoMembPot_72hr: Apredica 72-hour HepG2 Assay for Mitochondrial Membrane Potential (AID 2282917)
Measurement parameters: imaging, actives raise or lower the signal
The source made the active and inactive calls. How the source made its calls: active means hit-call score of the fitted dose curve at least 0.9, where 1 is the maximum; inactive means score below 0.9.
Hi! Could you answer with just one of these? active, inactive

{"columns": ["Smiles record", "Category label"],
 "data": [
  ["CSc1ccc(Oc2ccc(S(N)(=O)=O)cc2CN(C)C)cc1C", "inactive"],
  ["CN(C)CCCN(C)CCCN(C)C", "inactive"],
  ["C=CCCCCCCCCCCCC", "inactive"],
  ["CC(=O)S[C@H](C(=O)N[C@H]1Cc2ccccc2[C@H]2CCC[C@@H](C(=O)O)N2C1=O)C(C)C", "inactive"],
  ["CCCCCCCC(=O)OC", "inactive"],
  ["CCCCc1nc2cccnc2n1Cc1ccc(-c2ccccc2-c2nnn[nH]2)cc1", "inactive"]
]}

### Prompt Per the assay record, what outcome was assigned to `CC(=O)[C@@]1(O)CC[C@H]2[C@@H]3CCC4=CC(=O)CC[C@]4(C)[C@H]3CC[C@@]21C` ?
### Response inactive

### Prompt What do you get for `COC(=O)CCCC(=O)OC` ?
### Response inactive

### Prompt What do you get for `CC(=O)O[C@]1(C(C)=O)CC[C@H]2[C@@H]3C=C(Cl)C4=CC(=O)[C@@H]5C[C@@H]5[C@]4(C)[C@H]3CC[C@@]21C` ?
### Response inactive

### Prompt What do you get for `CC(=O)O` ?
### Response active

* * *

Read-out: Transforming growth factor beta 1 (TGFb1), TGFB1 (gene 7040)
Method description: BSK_BE3C_TGFb1: BioMAP Diversity Plus: BE3C Assay for Transforming growth factor beta 1 (TGFb1) Biomarker Activity (AID 2283036;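 further: TGF-b1 protein level measured by ELISA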)
Measurement parameters: primary human bronchial epithelial cells; actives raise or lower the signal
Activity calls are given as the source filed them. The calls were made as follows: active = hit-call score of the fitted dose curve at least 0.9, where 1 is the maximum; inactive = score below 0.9.
Hi! Could you answer with just one of these? active, inactive

### Prompt Per the assay record, what outcome was assigned to `CC(=O)[C@@]1(O)CC[C@H]2[C@@H]3CCC4=CC(=O)CC[C@]4(C)[C@H]3CC[C@@]21C` ?
### Response inactive

* * *

Read-out: Cytochrome P450 4A22 (Homo sapiens) (UniProt Q5TCH4)
Method description: LTEA_HepaRG_CYP4A22: Life Technologies and Expression Analysis (LTEA) Assay for Cytochrome P450 4A22 (CYP4A22) using HepaRG (AID 2283495)
Measurement parameters: mRNA level, 48 h; actives raise or lower the signal
Active and inactive are the calls of the source. Rule for the calls: active = hit-call score of the fitted dose curve at least 0.9, where 1 is the maximum; inactive = score below 0.9.
Hi! Could you answer with just one of these? true = active, false = inactive

{"columns": ["Compound", "Category label"],
 "data": [
  ["C#CC(O)C(CC)CCCC (stereo not drawn)", "false"],
  ["CCC(C)N(C)C(=O)c1cc2ccccc2c(-c2ccccc2Cl)n1 (stereo not drawn)", "true"],
  ["C=CCCCCCCCCCCCC", "false"],
  ["CCCCC(CC)COC(=O)CCCCCCCC(=O)OCC(CC)CCCC (stereo not drawn)", "false"],
  ["NC(=Nc1ccccc1)Nc1ccccc1", "false"],
  ["O=NO", "false"],
  ["NC=O", "false"]
]}

### Prompt Per the assay record, what outcome was assigned to `CC(=O)OCC(COC(C)=O)OC(C)=O` ?
### Response false

* * *

Target entity: Nuclear receptor subfamily 1 group I member 2 (Homo sapiens)
Method description: ATG_PXR_TRANS: Attagene TRANS-FACTORIAL HepG2 Assay for human Pregnane X Receptor (PXR) (AID 2283008)
Results filed as inconclusive are left out. Activity calls are given as the source filed them. The calls were made as follows: active = hit-call score of the fitted dose curve at least 0.9, where 1 is the maximum; inconclusive = response in the unintended direction; inactive = score below 0.9.
Hi! Could you answer with just one of these? 1.0 for active, 0.0 for inactive

Here's what some known entries look like.
{"columns": ["Smiles record", "Category label"],
 "data": [
  ["CC1=C(C)S(=O)(=O)CCS1(=O)=O", 0.0],
  ["C=CCc1ccc(OC)c(OC)c1", 1.0],
  ["Cc1ccc(C(C)(C)C)c(O)c1", 1.0],
  ["O=C(NS(=O)(=O)/C=C/c1cccs1)c1ccc(F)cc1Br", 1.0],
  ["CN(C)CCCN1c2ccccc2Sc2ccc(Cl)cc21", 0.0]
]}

### Prompt Per the assay record, what outcome was assigned to `Cc1ccc(-c2cc(C(F)(F)F)nn2-c2ccc(S(N)(=O)=O)cc2)cc1` ?
### Response 0.0

### Prompt What do you get for `CS(=O)(=O)c1ccc([C@@H](C[C@H]2CCC(=O)C2)C(=O)Nc2cnccn2)cc1Cl` ?
### Response 0.0

### Prompt What do you get for `CCCCc1nc2cccnc2n1Cc1ccc(-c2ccccc2-c2nnn[nH]2)cc1` ?
### Response 1.0

### Prompt What do you get for `CN(C)C(=O)NC1(c2ccccc2)CCN(CCC[C@]2(c3ccc(Cl)c(Cl)c3)CCCN(C(=O)c3ccccc3)C2)CC1` ?
### Response 1.0

### Prompt What do you get for `CN(C)C(=O)NC1(c2ccccc2)CCN(CC[C@@]2(c3ccc(F)c(F)c3)CN(C(=O)c3ccccc3)CCO2)CC1` ?
### Response 1.0

* * *

Read-out: growth arrest and DNA damage 45 (GADD45A), GADD45A (gene 1647)
Method description: LTEA_HepaRG_GADD45A: Life Technologies and Expression Analysis (LTEA) Assay for growth arrest and DNA damage 45 (GADD45A) using HepaRG (AID 2283458)
Measurement parameters: mRNA level, 48 h; actives raise or lower the signal
Activity calls are given as the source filed them. Rule for the calls: active = hit-call score of the fitted dose curve at least 0.9, where 1 is the maximum; inactive = score below 0.9.
Reported metric: AC50

Please review the following examples before continuing.
{"columns": ["Compound", "Result"],
 "data": [
  ["CCCCC(CC)COC(=O)CCCCCCCC(=O)OCC(CC)CCCC (stereo unspecified)", "inactive"],
  ["CC(C)(O)c1ccc(CNC(=O)c2cccnc2Oc2ccc(F)cc2)cc1", "inactive"],
  ["CC(=O)[C@@]1(O)CC[C@H]2[C@@H]3CCC4=CC(=O)CC[C@]4(C)[C@H]3CC[C@@]21C", "inactive"],
  ["CC(C)OC(=O)C(C)(C)Oc1ccc(C(=O)c2ccc(Cl)cc2)cc1", "53.6 nM (active)"],
  ["CCCCC(CC)COP(=O)(OCC(CC)CCCC)OCC(CC)CCCC (stereo unspecified)", "inactive"]
]}

### Prompt Which AC50 value is on record for `CN(C)C(=O)NC1(c2ccccc2)CCN(CC[C@@]2(c3ccc(F)c(F)c3)CN(C(=O)c3ccccc3)CCO2)CC1` ?
### Response inactive

### Prompt What do you get for `CC(C)COC(=O)CCCCC(=O)OCC(C)C` ?
### Response inactive

### Prompt What do you get for `CC(N)=O` ?
### Response 256 nM (active)

### Prompt What do you get for CC(=O)OC1CC(C)OC(C)O1 (stereo unspecified) ?
### Response inactive

### Prompt What do you get for `CCCCCCC(C=O)=Cc1ccccc1` ?
### Response inactive

### Prompt What do you get for `COc1ccc(OC(F)(F)F)cc1CN[C@H]1CCCN[C@H]1c1ccccc1` ?
### Response inactive
